Biological target: HLA-B*35:01
Assay: IEDB peptide-MHC binding, cellular MHC/competitive/fluorescence; bounds were set here for any values at or beyond the usual limits of such assays
Conditions: source organism: Mycobacterium tuberculosis H37Rv
pIC50: −log10 of the molar value.
pIC50: recorded values
PROPERTY_MEASURED: pIC50

chain_sequence=IPAKFLEGL observed_measurement=5.15
chain_sequence=IPAEFLENF observed_measurement=6.00

====

Molecular target: HLA-B*57:01
Test: IEDB peptide-MHC binding, purified MHC/direct/fluorescence; filed as Kd, often an IC50 or EC50 that approximates it; bounds were set here for any values at or beyond the usual limits of such assays
Conditions: source organism: Cryptosporidium parvum
PROPERTY_MEASURED: Kd (nM)

chain_sequence=KAFPLIQNM target_or_test_system=HLA-B*57:01 property_measured=Kd observed_measurement=124
